# assay-remarks: chemical genetic growth profiling, strain panel (AID 1159580);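 further: tested at 20 µM; growth read once vehicle control cultures reached saturation at 30 °C; 1 = growth at the plate median or of vehicle wells; lower values mean less growth of the strain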
# condition-info: S. cerevisiae deletion strains, growth OD, locus YJL164C, strain tpk1, stronger effect = lower value
Hit rate of the full screen: of about 5,500 compounds, about 2,000 (36%) were called active. Inconclusive results (about 18%) are left out. Some of the results follow.
parameter-measured: normalized growth
Give bare numbers.

>>> recorded_measurement("COC(=O)[C@H]1[C@H]2C[C@H]3c4[nH]c5cc(OC)ccc5c4CCN3C[C@H]2C[C@@H](OC(=O)c2cc(OC)c(OC)c(OC)c2)[C@@H]1OC")
1
>>> recorded_measurement("CCCc1nn(C)c2c(=O)[nH]c(-c3cc(S(=O)(=O)N4CCN(C)CC4)ccc3OCC)nc12")
0.999
>>> recorded_measurement("COC1=CC(=O)C=C(OC)C1=O")
0.999
>>> recorded_measurement("N#Cc1c(Cl)cccc1Cl")
0.996
>>> recorded_measurement("C/C=C(\\C)C(=O)O[C@@H]1c2c(ccc3ccc(=O)oc23)OC(C)(C)[C@@H]1OC(C)=O")
1

Fill in normalized growth for each of the 6 compounds listed.
1. CO[C@@H]1[C@@H](OC(N)=O)[C@@H](O)[C@H](Oc2ccc3c(O)c(NC(=O)c4ccc(O)c(CC=C(C)C)c4)c(=O)oc3c2C)OC1(C)C
2. O=C(O)C1=CC(=C(c2ccc(O)c(C(=O)O)c2)c2ccc(O)c(C(=O)O)c2)C=CC1=O
3. C=CCSC[C@@H](N)C(=O)O
4. C[N+]1(C)C[C@H](O)[C@H](C(=O)[O-])C1
5. O=C(O)c1ccccc1O
6. Nc1ccc(S(=O)(=O)Nc2ncccn2)cc1

Result:
1: 1.02; 2: 0.969; 3: 1; 4: 1.01; 5: 0.993; 6: 0.992

----------
# assay-remarks: chemical genetic growth profiling, strain panel (AID 1159580)
# condition-info: S. cerevisiae deletion strains, growth OD, locus YPR119W, strain clb2
The campaign covered roughly 5,500 compounds. About 2,000 (36%) were called active. About 18% were inconclusive and are not listed. Cut-off read from the data, not from the text of the source: active = normalized growth mostly below about 0.91 (no sharp cut-off); inconclusive = no clear call, values can overlap the other calls; inactive = mostly above about 0.92. The list shows a part of the results.
In this exercise, the only acceptable responses are active, inactive

>>> class_assignment("O=C(Oc1ccccc1C(=O)O)c1ccccc1O")
"inactive"
>>> class_assignment("CC1=C2C(O)C(=O)OC3CC4C(C)(C)C(=O)C=C[C@]4(C)C(CC1)[C@]23C (some centres not stated)")
"inactive"
>>> class_assignment("COc1cc(O)c2c(=O)cc(-c3ccc(O)cc3)oc2c1")
"inactive"

Problem: How did this test come out for CCCCC(=O)O[C@]1(C(=O)CO)[C@@H](C)CC2C3CCC4=CC(=O)C=C[C@]4(C)[C@@]3(F)C(O)C[C@@]21C (some centres not stated) ?
Result: inactive

Problem: How did this test come out for C/C=C/CC(C)C(O)C1C(=O)NC(CC)C(=O)N(C)CC(=O)N(C)C(CC(C)C)C(=O)NC(C(C)C)C(=O)N(C)C(CC(C)C)C(=O)NC(C)C(=O)NC(C)C(=O)N(C)C(CC(C)C)C(=O)N(C)C(CC(C)C)C(=O)N(C)C(C(C)C)C(=O)N1C (configuration not stated) ?
Result: inactive

Problem: How did this test come out for CCC(=O)OCC(=O)[C@@]1(OC(=O)CC)[C@@H](C)CC2C3CCC4=CC(=O)C=C[C@]4(C)C3(F)[C@@H](O)C[C@@]21C (some centres not stated) ?
Result: inactive

Problem: How did this test come out for NC(=O)c1cc([N+](=O)[O-])cc([N+](=O)[O-])c1 ?
Result: inactive

Problem: How did this test come out for N#Cc1c(Cl)cccc1Cl ?
Result: inactive

Problem: How did this test come out for O=C(/C=C(\O)c1ccccc1)c1ccccc1O ?
Result: inactive

----------
Consider the following compounds; for each one, report its normalized growth.
# assay-remarks: chemical genetic growth profiling, strain panel (AID 1159580)
# condition-info: S. cerevisiae deletion strains, growth OD, strain NNK1, stronger effect = lower value
Out of some 5,500 compounds screened, about 2,000 (36%) were called active. Another 18% or so got no clear call; they are omitted. This is one part of the list.
Numbers only.

>>> recorded_measurement("CCCCCCCCCCCCSc1ncn[nH]1")
0.983
>>> recorded_measurement("O=C(Nc1cc2ccccc2s1)N1CCN(Cc2c(F)cccc2Cl)CC1")
0.972
>>> recorded_measurement("O=C1Nc2ccccc2/C1=C\\c1cccc2ccccc12")
0.953

Fill in normalized growth for each of the 2 compounds listed.
1. ONC(=Nc1ccccc1Cl)c1ccccc1Cl
2. OC(COCc1ccccc1)Cn1c2ccccc2c2ccccc21 (stereo not given)

Result:
0.992
0.932

----------
# assay-remarks: chemical genetic growth profiling, strain panel (AID 1159580);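 further: tested at 20 µM; growth read once vehicle control cultures reached saturation at 30 °C; 1 = growth at the plate median or of vehicle wells; lower values mean less growth of the strain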
# condition-info: S. cerevisiae deletion strains, growth OD, locus YLL041C, strain sdh2
Hit rate of the full screen: of about 5,500 compounds, about 2,000 (36%) were called active. Roughly 18% stayed inconclusive and do not appear here. Rule as the data show it: active = normalized growth mostly below about 0.91 (no sharp cut-off); inconclusive = no clear call, values can overlap the other calls; inactive = mostly above about 0.92. This is one part of the list.
In this exercise, the only acceptable responses are Y = active, N = inactive

>>> class_assignment("NC(=O)c1ccc([N+](=O)[O-])cc1Cl")
"N"
>>> class_assignment("C=CCSC[C@@H](N)C(=O)O")
"N"
>>> class_assignment("O=c1c(O)cc([C@H]2Oc3cc(O)cc(O)c3C[C@H]2O)cc2c([C@H]3Oc4cc(O)cc(O)c4C[C@H]3O)cc(O)c(O)c12")
"N"

Problem: How did this test come out for O=C(/C=C(\O)c1ccccc1)c1ccccc1O ?
Result: Y

Problem: How did this test come out for CCn1nc(C(=O)O)c(=O)c2cc3c(cc21)OCO3 ?
Result: N

Problem: How did this test come out for CCCCCC(O)C1C(=O)OC(C)C(O)/C=C/C=C/C=C/C=C/C=C(\C)C(O)CC(O)CC(O)CC(O)CC(O)CC(O)CC1O (stereo unspecified) ?
Result: N

Problem: How did this test come out for NS(=O)(=O)c1cc2c(cc1C(F)(F)F)NC(Cc1ccccc1)NS2(=O)=O (stereo unspecified) ?
Result: N

Problem: How did this test come out for Oc1ccc([C@H]2Oc3cc(O)cc(O)c3C[C@H]2O)cc1 ?
Result: N

Problem: How did this test come out for CC1CCCC(C)N1NC(=O)c1ccc(Cl)c(S(N)(=O)=O)c1 (stereo unspecified) ?
Result: N

----------
# assay-remarks: chemical genetic growth profiling, strain panel (AID 1159580);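 further: tested at 20 µM; growth read once vehicle control cultures reached saturation at 30 °C; 1 = growth at the plate median or of vehicle wells; lower values mean less growth of the strain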
# condition-info: S. cerevisiae deletion strains, growth OD, locus YML032C, strain rad52, stronger effect = lower value
The whole screen tested about 5,500 compounds, of which about 2,000 (36%) were called active. Inconclusive results (about 18%) are left out. Some of the results follow.
Consider the following compounds; for each one, report its normalized growth.
Give bare numbers.

>>> recorded_measurement("CN(C)C(=O)C(CCN1CCC(O)(c2ccc(Cl)cc2)CC1)(c1ccccc1)c1ccccc1")
1.01

Fill in normalized growth for each of the 3 compounds listed.
1. CC1(C)Oc2ccc3ccc(=O)oc3c2CC1O (stereo not given)
2. CC[C@@]1(O)C(=O)OCc2c1cc1n(c2=O)Cc2cc3cc(O)ccc3nc2-1
3. CC(=O)O[C@@H]1c2c(ccc3ccc(=O)oc23)OC(C)(C)[C@@H]1OC(=O)CC(C)C

Result:
1: 0.976; 2: 0.407; 3: 0.992

----------
# assay-remarks: chemical genetic growth profiling, strain panel (AID 1159580);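 further: tested at 20 µM; growth read once vehicle control cultures reached saturation at 30 °C; 1 = growth at the plate median or of vehicle wells; lower values mean less growth of the strain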
# condition-info: S. cerevisiae strains, growth OD, strain wild type, stronger effect = lower value
Out of some 5,500 compounds screened, about 2,000 (36%) were called active. Inconclusive results (about 18%) are left out. The list shows a part of the results.
parameter-measured: normalized growth
Numbers only.

Here is how some molecules turned out for normalized growth.
>>> recorded_measurement("Cc1ccccc1N1C(=O)c2cc(S(N)(=O)=O)c(Cl)cc2NC1C (stereo not given)")
0.943
>>> recorded_measurement("CC[C@H]1CN2CCC1C[C@@H]2[C@@H](O)c1ccnc2ccc(OC)cc12 (stereo not given in full)")
0.999
>>> recorded_measurement("CCOC(=O)c1nnc2cc(C)nn2c1C")
1.02
>>> recorded_measurement("CCn1nc(C)cc1C(=O)O")
1.02
>>> recorded_measurement("CO[C@H]1[C@H](O)[C@@H](O[C@H]2CC[C@]3(C=O)C4CC[C@]5(C)[C@@H](C6=CC(=O)OC6)CC[C@]5(O)C4CC[C@@H]3C2)O[C@@H](C)[C@@H]1O (stereo not given in full)")
0.978
>>> recorded_measurement("Cc1c(OCC(F)(F)F)ccnc1CS(=O)c1nc2ccccc2[nH]1 (stereo not given)")
0.972
>>> recorded_measurement("Cc1ccc(Sc2nc(C)c([N+](=O)[O-])c(C)c2C#N)cc1")
0.974
>>> recorded_measurement("CC1Cc2ccccc2N1NC(=O)c1ccc(Cl)c(S(N)(=O)=O)c1 (stereo not given)")
1.01

Fill in normalized growth for each of the 2 molecules listed.
1. O=C(O/N=C1/CCCc2[nH]c3ccccc3c21)c1ccc(Cl)cc1Cl
2. Cn1c2c(c3ccccc31)/C(=N\OC(=O)c1ccc(Cl)cc1Cl)CCC2

Result:
0.874
1.02
